biological target: Glutaminase kidney isoform, mitochondrial (Homo sapiens, UniProt O94925); test: Inhibition of GAC (unknown origin)
Sequence (O94925 whole entry, canonical isoform): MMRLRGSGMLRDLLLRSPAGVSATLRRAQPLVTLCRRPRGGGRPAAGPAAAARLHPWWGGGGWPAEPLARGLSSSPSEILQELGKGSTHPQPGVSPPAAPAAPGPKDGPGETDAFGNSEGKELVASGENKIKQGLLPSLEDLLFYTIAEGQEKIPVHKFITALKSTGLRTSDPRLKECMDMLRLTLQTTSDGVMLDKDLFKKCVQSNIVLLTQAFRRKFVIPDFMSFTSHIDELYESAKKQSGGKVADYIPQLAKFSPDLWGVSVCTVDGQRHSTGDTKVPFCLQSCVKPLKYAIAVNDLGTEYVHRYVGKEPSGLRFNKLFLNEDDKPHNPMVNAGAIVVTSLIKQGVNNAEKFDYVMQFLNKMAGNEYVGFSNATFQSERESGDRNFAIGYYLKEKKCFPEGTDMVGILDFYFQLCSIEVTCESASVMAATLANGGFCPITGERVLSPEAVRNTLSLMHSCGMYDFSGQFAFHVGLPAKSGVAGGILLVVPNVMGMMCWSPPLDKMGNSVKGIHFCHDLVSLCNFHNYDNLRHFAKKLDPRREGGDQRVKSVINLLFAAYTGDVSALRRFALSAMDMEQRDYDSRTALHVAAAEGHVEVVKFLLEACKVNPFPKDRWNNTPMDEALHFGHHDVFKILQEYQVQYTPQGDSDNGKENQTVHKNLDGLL
pIC50: −log10 of the molar value.
result type: pIC50

Tested system Glutaminase kidney isoform, mitochondrial (Homo sapiens, UniProt O94925); pIC50 recorded for O=C(Cc1ccccc1)Nc1nnc(CCCCn2ccc(NC(=O)Cc3ccccc3)c(F)c2=O)s1 was > 7.00

The compound O=C(Cc1ccccc1)Nc1nnc(C[C@H]2C[C@@H]2Cc2nnc(NC(=O)Cc3ccccc3)s2)s1 (racemic) , when measured on Glutaminase kidney isoform, mitochondrial (Homo sapiens, UniProt O94925), yielded pIC50 of 6.30 to 7.00

pIC50 value, target or system Glutaminase kidney isoform, mitochondrial (Homo sapiens, UniProt O94925), for O=C(Cc1ccccc1)Nc1ccn(CCCCn2cc(C(=O)NCc3cccc(OC(F)(F)F)c3)nn2)c(=O)c1 : > 7.00
